// reported protein stability index for each item listed
B1: FAM46C (parent)
chain: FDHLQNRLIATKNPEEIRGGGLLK

# Variants of: B1
# assayDetails: protein stability index of a GFP-peptide fusion (GPS, HEK-293T) (PSI 1-6); higher = more stable;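 further: lentivirally expressed fusions sorted by FACS into six bins by GFP to DsRed ratio, PSI derived from sequencing read proportions per bin multiplied by bin number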
# conditionSummary: c terminus: a fixed tail appended
Please respond with just the number, no unit label.

Examples from the recorded data:
> print(dat)
   variantid              readoutkind  readoutvalue
1        L8T  protein stability index          4.34
2       P14L  protein stability index          3.87
3        L4M  protein stability index          4.04
4        L4D  protein stability index          4.02
5        H3D  protein stability index          4.52
6       K24M  protein stability index          3.11
7       P14V  protein stability index          3.25
8       G20V  protein stability index           3.2

**Q:** Answer with the recorded protein stability index of `I9M` only.
**A:** 3.58

**Q:** Tell me protein stability index reported for `R7H`
**A:** 4.35

**Q:** Give me measured protein stability index, please, for this variant: `F1H`
**A:** 4.47

**Q:** Identify measured protein stability index corresponding to `L22P`
**A:** 4.2

**Q:** Note protein stability index for the variant shown: `L23Y`
**A:** 2.99

**Q:** Specify protein stability index for `I17R` and stop.
**A:** 3.86

**Q:** Item `L22C` : provide protein stability index
**A:** 3.78

**Q:** Provide protein stability index value for the following variant: `E16T`
**A:** 3.79

**Q:** Please give measured protein stability index of the following entry: `I17D`
**A:** 4.52

**Q:** Supply reported protein stability index belonging to this variant: `N6Q`
**A:** 4.1

**Q:** Indicate the recorded protein stability index value for this variant: `I17C`
**A:** 4.18

**Q:** State, in one line, measured protein stability index of `L8W`
**A:** 4

**Q:** Report protein stability index, nothing else, for this variant: `D2C`
**A:** 1.72

**Q:** Fill in protein stability index for record `H3S`
**A:** 3.17
